System: Setaria faberi
ASSAY: Example B2 herbicidal action, post-emergence, pots in glasshouse, evaluated after 13 days (10=total damage to plant; 0=no damage to plant)
Format: in vivo
CONDITION: rate 1000 g/ha
I'd be grateful if you could share measured SETFA damage score (10=total damage to plant; 0=no damage to plant) for these entries.

Setaria faberi SETFA damage score (10=total damage to plant; 0=no damage to plant) of O=c1c(-c2c(F)ccc(Br)c2Cl)c(O)c2nccnc2n1CC(F)F is 8

Setaria faberi SETFA damage score (10=total damage to plant; 0=no damage to plant) of CC(C)C(=O)Oc1c(-c2c(F)ccc(F)c2Cl)c(=O)n(CC=C(Cl)Cl)c2nccnc12 is 0

Setaria faberi SETFA damage score (10=total damage to plant; 0=no damage to plant) of CC(C)(C)C(=O)Oc1c(-c2cc(F)c(F)cc2Cl)c(=O)n(CC(F)F)c2nccnc12 is 7

Setaria faberi SETFA damage score (10=total damage to plant; 0=no damage to plant) of O=C1c2nccnc2N(CCF)C(=O)C1c1c(F)ccc(F)c1Cl (stereo not drawn) [D2] is 2

Setaria faberi SETFA damage score (10=total damage to plant; 0=no damage to plant) of CC(C)(C)C(=O)Oc1c(-c2c(F)ccc(F)c2Cl)c(=O)n(CCC(F)=C(F)F)c2nccnc12 is 0

Setaria faberi SETFA damage score (10=total damage to plant; 0=no damage to plant) of COc1ccc(OC(F)(F)F)cc1-c1c(O)c2nccnc2n(CC(F)F)c1=O is 9

Setaria faberi SETFA damage score (10=total damage to plant; 0=no damage to plant) of O=c1c(-c2cc(F)ccc2Cl)c(O)c2nccnc2n1CC(F)F is 7

Setaria faberi SETFA damage score (10=total damage to plant; 0=no damage to plant) of CC(C)C(=O)Oc1c(-c2cc(F)c(Cl)cc2Cl)c(=O)n(CC(F)F)c2nccnc12 is 8

Setaria faberi SETFA damage score (10=total damage to plant; 0=no damage to plant) of CC(C)(C)C(=O)Oc1c(-c2cc(F)ccc2Cl)c(=O)n(CC(F)F)c2nccnc12 is 9

Setaria faberi SETFA damage score (10=total damage to plant; 0=no damage to plant) of CC(C)(C)C(=O)Oc1c(-c2c(Cl)cc(C(F)(F)F)cc2Cl)c(=O)n(CC(F)F)c2nccnc12 is 9

Setaria faberi SETFA damage score (10=total damage to plant; 0=no damage to plant) of CCc1ccccc1-c1c(OC(=O)C(C)C)c2nccnc2n(CC(F)F)c1=O is 8

Setaria faberi SETFA damage score (10=total damage to plant; 0=no damage to plant) of CC(C)C(=O)Oc1c(-c2c(F)ccc(F)c2Cl)c(=O)n(CC(F)(F)F)c2nccnc12 is 6

* * *

Tested on: Amaranthus retroflexus
ASSAY: Example B2 herbicidal action, post-emergence, pots in glasshouse, evaluated after 13 days (10=total damage to plant; 0=no damage to plant)
Format: in vivo
CONDITION: rate 1000 g/ha
PROPERTY: AMARE damage score (10=total damage to plant; 0=no damage to plant)
Response field accepts a number only; no unit should be typed.

Amaranthus retroflexus AMARE damage score (10=total damage to plant; 0=no damage to plant) of COc1cc(F)c(F)cc1-c1c(OC(=O)C(C)(C)C)c2nccnc2n(CC(F)F)c1=O [A44] is 9

Amaranthus retroflexus AMARE damage score (10=total damage to plant; 0=no damage to plant) of Cc1cc(C)c(-c2c(OC(=O)C(C)(C)C)c3nccnc3n(CC(F)F)c2=O)c(C)c1 [A25] is 7

Amaranthus retroflexus AMARE damage score (10=total damage to plant; 0=no damage to plant) of CC(C)(C)C(=O)Oc1c(-c2cc(F)ccc2Cl)c(=O)n(CC(F)F)c2nccnc12 [A14] is 10

Amaranthus retroflexus AMARE damage score (10=total damage to plant; 0=no damage to plant) of CCc1cc(C)cc(CC)c1-c1c(OC(=O)C(C)C)c2nccnc2n(CC(F)F)c1=O [A12] is 3

Amaranthus retroflexus AMARE damage score (10=total damage to plant; 0=no damage to plant) of CCc1cc(C)cc(CC)c1-c1c(O)c2nccnc2n(CC(F)F)c1=O [B4] is 7

Amaranthus retroflexus AMARE damage score (10=total damage to plant; 0=no damage to plant) of CC(C)(C)C(=O)Oc1c(-c2c(F)cccc2Cl)c(=O)n(CC(F)F)c2nccnc12 [A34] is 10

Amaranthus retroflexus AMARE damage score (10=total damage to plant; 0=no damage to plant) of CC(C)(C)C(=O)Oc1c(-c2cc(Cl)ccc2Cl)c(=O)n(CC(F)F)c2nccnc12 [A42] is 10

Amaranthus retroflexus AMARE damage score (10=total damage to plant; 0=no damage to plant) of CC(C)(C)C(=O)Oc1c(-c2c(Cl)cc(OC(F)(F)F)cc2Cl)c(=O)n(CC(F)F)c2nccnc12 [A11] is 10

Amaranthus retroflexus AMARE damage score (10=total damage to plant; 0=no damage to plant) of CC(C)C(=O)Oc1c(-c2cc(F)c(Cl)cc2Cl)c(=O)n(CC(F)F)c2nccnc12 [A20] is 10

Amaranthus retroflexus AMARE damage score (10=total damage to plant; 0=no damage to plant) of CC(C)C(=O)Oc1c(-c2c(Cl)cccc2C(F)(F)F)c(=O)n(CC(F)F)c2nccnc12 [A41] is 10

Amaranthus retroflexus AMARE damage score (10=total damage to plant; 0=no damage to plant) of O=C1c2nccnc2N(CC(F)(F)F)C(=O)C1c1c(F)ccc(F)c1Cl (stereo not drawn) [D1] is 10

Amaranthus retroflexus AMARE damage score (10=total damage to plant; 0=no damage to plant) of O=c1c(-c2c(Cl)ccc(Cl)c2Cl)c(O)c2nccnc2n1CC(F)F [B11] is 10

Amaranthus retroflexus AMARE damage score (10=total damage to plant; 0=no damage to plant) of COc1cccc(-c2c(OC(=O)C(C)C)c3nccnc3n(CC(F)F)c2=O)c1OC [A15] is 6

Amaranthus retroflexus AMARE damage score (10=total damage to plant; 0=no damage to plant) of CCc1ccccc1-c1c(OC(=O)C(C)C)c2nccnc2n(CC(F)F)c1=O [A45] is 10

Amaranthus retroflexus AMARE damage score (10=total damage to plant; 0=no damage to plant) of COc1ccc(Br)cc1-c1c(OC(=O)C(C)(C)C)c2nccnc2n(CC(F)F)c1=O [A38] is 10

Amaranthus retroflexus AMARE damage score (10=total damage to plant; 0=no damage to plant) of CC(C)C(=O)Oc1c(-c2ccccc2OC(F)F)c(=O)n(CC(F)F)c2nccnc12 [A26] is 10

Amaranthus retroflexus AMARE damage score (10=total damage to plant; 0=no damage to plant) of CC(C)(C)C(=O)Oc1c(-c2c(F)ccc(F)c2Cl)c(=O)n(CC(F)(F)F)c2nccnc12 [C8] is 10

Amaranthus retroflexus AMARE damage score (10=total damage to plant; 0=no damage to plant) of CC(C)(C)C(=O)Oc1c(-c2cc(F)c(F)cc2Cl)c(=O)n(CC(F)F)c2nccnc12 [A33] is 10

* * *

Test system: Setaria faberi
ASSAY: Example B2 herbicidal action, post-emergence, pots in glasshouse, evaluated after 13 days (10=total damage to plant; 0=no damage to plant)
Assay type: in vivo
CONDITION: rate 1000 g/ha
I'd be grateful if you could share measured SETFA damage score (10=total damage to plant; 0=no damage to plant) for these entries.
Response field accepts a number only; no unit should be typed.

Setaria faberi SETFA damage score (10=total damage to plant; 0=no damage to plant) of CC(C)(C)C(=O)Oc1c(-c2c(Cl)cc(OC(F)(F)F)cc2Cl)c(=O)n(CC(F)F)c2nccnc12 [A11] is 9

Setaria faberi SETFA damage score (10=total damage to plant; 0=no damage to plant) of CC(C)C(=O)Oc1c(-c2ccccc2OC(F)F)c(=O)n(CC(F)F)c2nccnc12 [A26] is 2

Setaria faberi SETFA damage score (10=total damage to plant; 0=no damage to plant) of O=C1c2nccnc2N(CC(F)(F)F)C(=O)C1c1c(F)ccc(F)c1Cl (centres unmarked) [D1] is 6

Setaria faberi SETFA damage score (10=total damage to plant; 0=no damage to plant) of CC(C)(C)C(=O)Oc1c(-c2c(F)ccc(F)c2Cl)c(=O)n(CCC=C(F)F)c2nccnc12 [C11] is 0

Setaria faberi SETFA damage score (10=total damage to plant; 0=no damage to plant) of CCc1cc(C)cc(CC)c1-c1c(OC(=O)C(C)C)c2nccnc2n(CC(F)F)c1=O [A12] is 10

Setaria faberi SETFA damage score (10=total damage to plant; 0=no damage to plant) of CC(C)(C)C(=O)Oc1c(-c2cc(Cl)ccc2Cl)c(=O)n(CC(F)F)c2nccnc12 [A42] is 7

Setaria faberi SETFA damage score (10=total damage to plant; 0=no damage to plant) of O=c1c(-c2c(Cl)cccc2C(F)(F)F)c(O)c2nccnc2n1CC(F)F [B13] is 9

Setaria faberi SETFA damage score (10=total damage to plant; 0=no damage to plant) of CC(C)C(=O)Oc1c(-c2c(Cl)cccc2C(F)(F)F)c(=O)n(CC(F)F)c2nccnc12 [A41] is 9

Setaria faberi SETFA damage score (10=total damage to plant; 0=no damage to plant) of CC(C)(C)C(=O)Oc1c(-c2ccc(C(F)(F)F)cc2Br)c(=O)n(CC(F)F)c2nccnc12 [A10] is 3

Setaria faberi SETFA damage score (10=total damage to plant; 0=no damage to plant) of COc1ccc(OC(F)(F)F)cc1-c1c(OC(=O)C(C)C)c2nccnc2n(CC(F)F)c1=O [A23] is 9

Setaria faberi SETFA damage score (10=total damage to plant; 0=no damage to plant) of O=c1c(-c2c(F)ccc([N+](=O)[O-])c2Cl)c(O)c2nccnc2n1CC(F)F [B9] is 7

Setaria faberi SETFA damage score (10=total damage to plant; 0=no damage to plant) of CCc1cc(C)cc(CC)c1-c1c(O)c2nccnc2n(CC(F)F)c1=O [B4] is 9

Setaria faberi SETFA damage score (10=total damage to plant; 0=no damage to plant) of CC(C)(C)C(=O)Oc1c(-c2c(F)ccc(F)c2Cl)c(=O)n(CC=C(Cl)Cl)c2nccnc12 [C13] is 0

Setaria faberi SETFA damage score (10=total damage to plant; 0=no damage to plant) of COc1ccc(Br)cc1-c1c(OC(=O)C(C)(C)C)c2nccnc2n(CC(F)F)c1=O [A38] is 8

Setaria faberi SETFA damage score (10=total damage to plant; 0=no damage to plant) of CC(C)(C)C(=O)Oc1c(-c2cc(C(F)(F)F)ccc2C(F)(F)F)c(=O)n(CC(F)F)c2nccnc12 [A43] is 9

Setaria faberi SETFA damage score (10=total damage to plant; 0=no damage to plant) of CC(C)C(=O)Oc1c(-c2cc(F)ccc2Cl)c(=O)n(CC(F)F)c2nccnc12 [A13] is 9

Setaria faberi SETFA damage score (10=total damage to plant; 0=no damage to plant) of CC(C)(C)C(=O)Oc1c(-c2ccccc2OC(F)F)c(=O)n(CC(F)F)c2nccnc12 [A28] is 3

Setaria faberi SETFA damage score (10=total damage to plant; 0=no damage to plant) of CC(C)(C)C(=O)Oc1c(-c2cc(Cl)ccc2C(F)(F)F)c(=O)n(CC(F)F)c2nccnc12 [A37] is 7

Setaria faberi SETFA damage score (10=total damage to plant; 0=no damage to plant) of O=C1c2nccnc2N(CC=C(Cl)Cl)C(=O)C1c1c(F)ccc(F)c1Cl (centres unmarked) [D3] is 3

Setaria faberi SETFA damage score (10=total damage to plant; 0=no damage to plant) of COc1cccc(-c2c(OC(=O)C(C)C)c3nccnc3n(CC(F)F)c2=O)c1OC [A15] is 9

Setaria faberi SETFA damage score (10=total damage to plant; 0=no damage to plant) of Cc1cc(C)c(-c2c(OC(=O)C(C)(C)C)c3nccnc3n(CC(F)F)c2=O)c(C)c1 [A25] is 7

Setaria faberi SETFA damage score (10=total damage to plant; 0=no damage to plant) of COc1cccc(-c2c(OC(=O)C(C)(C)C)c3nccnc3n(CC(F)F)c2=O)c1OC [A16] is 8

Setaria faberi SETFA damage score (10=total damage to plant; 0=no damage to plant) of CC(C)(C)C(=O)Oc1c(-c2c(F)ccc(F)c2Cl)c(=O)n(CCF)c2nccnc12 [C9] is 0

Setaria faberi SETFA damage score (10=total damage to plant; 0=no damage to plant) of COc1ccc(OC(F)(F)F)cc1-c1c(OC(=O)C(C)(C)C)c2nccnc2n(CC(F)F)c1=O [A27] is 7

Setaria faberi SETFA damage score (10=total damage to plant; 0=no damage to plant) of O=c1c(-c2c(F)ccc(Cl)c2Cl)c(O)c2nccnc2n1CC(F)F [B14] is 7

Setaria faberi SETFA damage score (10=total damage to plant; 0=no damage to plant) of COc1cc(F)c(F)cc1-c1c(OC(=O)C(C)(C)C)c2nccnc2n(CC(F)F)c1=O [A44] is 9

Setaria faberi SETFA damage score (10=total damage to plant; 0=no damage to plant) of O=c1c(-c2c(Cl)ccc(Cl)c2Cl)c(O)c2nccnc2n1CC(F)F [B11] is 9

Setaria faberi SETFA damage score (10=total damage to plant; 0=no damage to plant) of Cc1cc(C)c(-c2c(O)c3nccnc3n(CC(F)F)c2=O)c(C)c1 [B5] is 8

Setaria faberi SETFA damage score (10=total damage to plant; 0=no damage to plant) of CC(C)(C)C(=O)Oc1c(-c2c(F)ccc(Br)c2Cl)c(=O)n(CC(F)F)c2nccnc12 [A19] is 8

Setaria faberi SETFA damage score (10=total damage to plant; 0=no damage to plant) of CC(C)(C)C(=O)Oc1c(-c2cc(F)c(Cl)cc2Cl)c(=O)n(CC(F)F)c2nccnc12 [A17] is 7

Setaria faberi SETFA damage score (10=total damage to plant; 0=no damage to plant) of CC(C)(C)C(=O)Oc1c(-c2c(F)cccc2Cl)c(=O)n(CC(F)F)c2nccnc12 [A34] is 6

Setaria faberi SETFA damage score (10=total damage to plant; 0=no damage to plant) of COc1ccc(Br)cc1-c1c(O)c2nccnc2n(CC(F)F)c1=O [B12] is 6

Setaria faberi SETFA damage score (10=total damage to plant; 0=no damage to plant) of O=c1c(-c2cc(Cl)ccc2C(F)(F)F)c(O)c2nccnc2n1CC(F)F [B10] is 9

Setaria faberi SETFA damage score (10=total damage to plant; 0=no damage to plant) of CC(C)(C)C(=O)Oc1c(-c2c(F)ccc(F)c2Cl)c(=O)n(CC(F)(F)F)c2nccnc12 [C8] is 4

Setaria faberi SETFA damage score (10=total damage to plant; 0=no damage to plant) of CC(C)(C)C(=O)Oc1c(-c2c(F)ccc(Cl)c2Cl)c(=O)n(CC(F)F)c2nccnc12 [A32] is 7
